Experiment: NCI Yeast Anticancer Drug Screen. Data for the mec2-1 strain (AID 157)
Details: S. cerevisiae mec2-1 strain, at 50.0 µM, active compounds read high
About 79,000 compounds went through this panel and 15% of them were active in at least one assay; those are over-represented in the sample as a whole.
# Lookup of reported growth inhibition keyed by entry
Reported Endpoint: growth inhibition (%)

• O=C1CNC(=O)c2cc(N=Cc3cc(Br)ccc3O)ccc2N1 = 62
• O=S(=O)(Nc1ccc(NS(=O)(=O)c2ccccc2)c(N2N=N2)c1)c1ccccc1 = 66.2
• Cc1c(N=Nc2ccc(Cl)cc2)c(-c2ccccc2)n(C2OC(CO)C(O)C(O)C2O)c(=S)c1C#N (stereo unspecified) = 97.2
• CC1OC(c2ccc3c(c2)OCO3)OC1C (stereo unspecified) = 20.1
• CCCCC#CCCOC(=O)C#CCCCC = 28.2
• CN(C)CC1CCc2c(ccc3ccccc23)C1=O (stereo unspecified) = 66.8

---

Test: NCI Yeast Anticancer Drug Screen. Data for the mec2-1 strain (AID 157)
Conditions: S. cerevisiae mec2-1 strain, at 5.0 µM (retest, dose inferred, filed as 0.5), active compounds read high
Compounds without any hit were thinned out: in the full panel of roughly 79,000, 15% have a hit.
Reported Endpoint: growth inhibition (%)

• O=C(Oc1cc(Cl)c(Cl)cc1Cl)c1ccco1 = 4
• Cc1cc(N)c(C)c2c1[nH]c1ccc(Br)cc12 = -3
• CSc1cc(Cl)c(C)cc1S(=O)(=O)NC(=O)Nc1ccc(Cl)cc1 = 34
• CCOC(=O)C(=CCC1NCCc2c1[nH]c1ccccc21)C(=O)OCC (stereo not given) = 29
• Cc1csc2c1C(=O)c1ccsc1C2=O = 50
• CCC(Cl)COP(=O)(OCC(Cl)CC)OC(c1ccc(Cl)c(Cl)c1)P(=O)(OCC(Cl)CC)OCC(Cl)CC (stereo not given) = 14
• CC(Br)C(=O)c1ccc2cc(Cl)c3ccccc3c2c1 (stereo not given) = 5
• CCN(CC)CCCC(C)Nc1cc(C)nc2c1ccc1c2ccc2c(NC(C)CCCN(CC)CC)cc(C)nc21 (stereo not given) = -39
• O=S(=O)(Nc1ccc(NS(=O)(=O)c2ccccc2)c(N2N=N2)c1)c1ccccc1 = 2
• COC1/C=C\C=C(/C)C(=O)NC2=CC(=O)C(N)=C(CC(C)CC(OC)C(O)C(C)C=C(C)C1OC(N)=O)C2=O (stereo not given) = -23

---

Assay: NCI Yeast Anticancer Drug Screen. Data for the mec2-1 strain (AID 157)
Conditions: S. cerevisiae mec2-1 strain, at 50.0 µM (retest, dose inferred, filed as 5.0)
The panel holds about 79,000 compounds, 15% with a hit somewhere; the sample as a whole holds those more often. Activity calls are given as the source filed them. No stated cut-off is given here; in the data, active means growth inhibition above about 70%; inactive means the rest.
Outcomes: active, inactive

• CCc1cccc(CC)c1NC(=S)N/C=C(\C#N)C(=O)c1ccc2ccccc2c1 = inactive
• CCC(CC)C(c1ccc(O)cc1)c1ccc(O)cc1 = active
• Oc1ccc(Cc2ccccc2)cc1Cl = active
• Brc1cc2c(c(Br)c1Br)C(Br)(Br)C(c1ccccc1)=N2 = active
• COc1cccc2c1C(=O)c1c(O)c3c(c(O)c1C2=O)C[C@@](O)(/C(C)=N\NC=O)C[C@@H]3OC1CC(N)C(O)C(C)O1 (some centres not stated) = inactive
• CN(C)C(=O)/N=c1\ss/c(=N\C(=S)N(C)C)n1-c1ccccc1 = inactive
• N#Cc1ccccc1NC1OCC(O)C(O)C1O (configuration not stated) = inactive
• CCOC(=O)/N=C(\N)SCc1ccccc1 = inactive
• CSc1cccc(N2C(=O)C=CC2=O)c1 = inactive
• N#Cc1ncc(Cl)cc1[N+](=O)[O-] = active
• O=C1c2cccc3cccc(c23)C1(Br)Br = active
• O=C1CCC(Cc2ccc(C(F)(F)F)cc2)C(=O)N1 (configuration not stated) = inactive

---

Assay: NCI Yeast Anticancer Drug Screen. Data for the rad50 strain (AID 155);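 note: 0% = growth of vehicle-only cultures of the same strain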
Settings: S. cerevisiae rad50 strain growth inhibition; at 5.0 µM (retest, dose inferred, filed as 0.5); active compounds read high
About 79,000 compounds went through this panel and 15% of them were active in at least one assay; those are over-represented in the sample as a whole.
Reported Endpoint: growth inhibition (%)

• CCCCC(Oc1cc(C(C)(C)C)c(O)c(C(C)(C)C)c1)C(=O)O (stereo not drawn) = 21
• COc1ccc2c(c1)[n+]([O-])c(C(N)=O)c(N)[n+]2[O-] = 23
• CSCSCC(CO)NC(=O)/C=C/c1c(C)[nH]c(=O)[nH]c1=O (stereo not drawn) = -2
• CCCCCCNC(=S)N/N=C(\C)c1ccccn1 = 72
• Clc1ccc(C2=C(c3ccccc3)C(c3ccc(Cl)cc3)N3C(=N[C@H]4CCCC[C@@H]43)N2)cc1 (stereo partly drawn) = 4
• c1ccc2c(c1)cc(C1NCCc3[nH]cnc31)c1ccccc12 (stereo not drawn) = 13
• Cc1ccc(-n2cc(-c3ccc(Cl)cc3)c3c(NN)ncnc32)cc1 = -20
• Cn1c2nc(-[n+]3ccc(-c4ccccc4)cc3)nc-2c([O-])n(C)c1=O = 3
• Clc1cc(Cl)c2cc3cccc[n+]3cc2c1Cl = 0
• O=C1c2ccc(Cl)cc2C(=O)c2cc(Cl)ccc21 = 7
• CCOC(=O)CNC(=O)CNC(=O)CNC(c1ccccc1)(c1ccccc1)c1ccccc1 = -8
• COc1cc(NCCCCCNC(C)C)c2ncc(C)c(C)c2c1 = 3
• O=C(N/C(=C\c1ccc(Br)cc1)c1nc2ccccc2[nH]1)c1ccccc1 = 3
• Cn1cnc([N+](=O)[O-])c1Sc1ccc(Cl)cc1 = 16
• Oc1cc(O)c2c(c1)OC(c1ccc(O)c(O)c1)C(OC1(c3cc(O)c(O)c(O)c3)Oc3cc(O)cc(O)c3C(O)C1O)C2 (stereo not drawn) = -4
• CNc1ccc(N=O)cc1 = -1
• Oc1cc(C(c2ccccc2)c2ccccc2)c2ccccc2c1O = 17
• O=C(Sc1c(-c2ccccc2)c(=O)n(-c2ccccc2)c(=S)n1-c1ccccc1)c1cccs1 = 37
• O=S(=O)(Nc1ccccn1)c1ccc(N=Cc2c3ccccc3nc3cc(Cl)ccc23)cc1 = 2
• CC1(C)CC(O)C(O)C1 (stereo not drawn) = -2
• C/C(=N/NC(N)=O)c1ccc(Cl)s1 = 0
• CC(=O)CC(C)=NCCN=C(C)CC(C)=O.[Pd] = -6
• O=C(O)c1ccc2ccccc2c1C(=O)c1cccc2ccccc12 = 12

---

Assay: NCI Yeast Anticancer Drug Screen. Data for the rad50 strain (AID 155);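 note: 0% = growth of vehicle-only cultures of the same strain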
Settings: S. cerevisiae rad50 strain growth inhibition; at 50.0 µM
Compounds without any hit were thinned out: in the full panel of roughly 79,000, 15% have a hit. Calls of active or inactive are those of the source. Cut-off read from the data, not from the text of the source: active = growth inhibition above about 70%; inactive = the rest.
Outcomes: label 1 = active, label 0 = inactive

* CCOc1ccc(/C=C2\NC(=S)N(/C=C3\C(=O)Oc4ccccc4C3=O)C2=O)cc1 | label 0
* CN(C)c1ccccc1CN1CCCN(Cc2ccccc2N(C)C)C1 | label 0
* O=C(C[n+]1ccc2ccccc2c1)c1ccc2ccc3ccccc3c2c1 | label 1
* COc1cc2cc[n+]3c4ccc([N+](=O)[O-])cc4ccc3c2cc1OC | label 0
* Cc1c2ccncc2c(C)c2c1sc1ccccc12 | label 1
* C(=NCCC[Si]12OCCN(CCO1)CCO2)c1ccc(C=NCCC[Si]23OCCN(CCO2)CCO3)cc1 | label 0
* COS(=O)c1cc(Cl)cc(Cl)c1OC(=O)CSSCC(=O)Oc1c(Cl)cc(Cl)cc1S(=O)OC (stereo not drawn) | label 1
* FC(F)(F)c1ccccc1NC(=S)SCc1ccc2c(c1)OCO2 | label 1
* Nc1ncc2ccccc2c1-c1ccc(NC(=O)CCCl)cc1 | label 1
* Nc1cc2[nH]c(=O)c3cc(Cl)ccc3c2cc1Cl | label 1
* CC(C)=NOc1ccc([N+](=O)[O-])cc1[N+](=O)[O-] | label 1
* COC(=O)c1ccc2c(c1)CC1(C2)Cc2ccccc2C1=O (stereo not drawn) | label 0
* O=C1/C(=N/N=C(c2ccccc2)c2ccccc2)c2ccccc2-c2ccccc21 | label 0
* COc1cccc(=O)cc1 | label 1
* c1ccc([CH2][Sn]([CH2]c2ccccc2)([S]c2cccc3cccnc23)[S]c2cccc3cccnc23)cc1 | label 1
* O=C1C=C(Br)C(=O)C12CCc1ccccc12 (stereo not drawn) | label 1
* O=[N+]([O-])c1ccc(/C=c2\sc3scc(-c4ccc([N+](=O)[O-])cc4)[n+]3\c2=C/c2ccc([N+](=O)[O-])cc2)cc1 | label 1
* O=S(=O)(O)CNc1cc(Cl)cc(Cl)c1 | label 0
* CC(=O)Oc1cccc2c1C(=O)C(Br)(Br)CCC2 | label 1
* Clc1ccc2nc3c(c(N4CCCCC4)c2c1)CCCC3 | label 1
* Cn1c(=NCCc2ccccc2)oc2ccc(Cl)cc21 | label 0
* O=c1ccc2c(COc3ccc(Cl)cc3Cl)c3ccc(O)cc3oc-2c1 | label 1
* CC1=CC(=O)C(O)=C/C1=C\C=C\c1ccccc1 | label 1
